Molecular target: GalNAc3S(b1-4)GlcNAc
Experiment: glycan array binding signal (z-score within array); higher = stronger binding
Settings: glycan notation: IUPAC condensed, linker removed
Many of the other results were omitted from the sample, so the strongest signals are more common in it than they were.
recorded-endpoint: glycan array binding signal (z-score)
Returns: the value as a bare number; no unit string appended.

binder="CLEC5A (Homo sapiens), Q9NY25 (protein) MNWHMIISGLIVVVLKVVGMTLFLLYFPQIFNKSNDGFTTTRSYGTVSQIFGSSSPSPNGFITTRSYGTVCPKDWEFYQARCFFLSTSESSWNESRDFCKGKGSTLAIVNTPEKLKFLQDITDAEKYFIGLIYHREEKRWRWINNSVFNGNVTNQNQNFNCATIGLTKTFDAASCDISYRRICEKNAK" experimental_result=-0.162

Lookup result for CC1G-11630 (Coprinopsis cinerea), A8P462 (protein) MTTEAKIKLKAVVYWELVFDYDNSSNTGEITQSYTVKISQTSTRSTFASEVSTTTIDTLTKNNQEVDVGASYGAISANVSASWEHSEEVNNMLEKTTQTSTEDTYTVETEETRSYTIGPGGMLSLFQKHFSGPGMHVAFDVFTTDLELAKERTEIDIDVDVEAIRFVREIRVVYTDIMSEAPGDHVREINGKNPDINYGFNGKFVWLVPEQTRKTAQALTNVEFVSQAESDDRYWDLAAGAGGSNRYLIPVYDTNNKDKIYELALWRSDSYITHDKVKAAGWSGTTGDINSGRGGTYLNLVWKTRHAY ; measured glycan array binding signal (z-score): -0.609

Form field glycan array binding signal (z-score), entry LFA (Limax flavus) (protein) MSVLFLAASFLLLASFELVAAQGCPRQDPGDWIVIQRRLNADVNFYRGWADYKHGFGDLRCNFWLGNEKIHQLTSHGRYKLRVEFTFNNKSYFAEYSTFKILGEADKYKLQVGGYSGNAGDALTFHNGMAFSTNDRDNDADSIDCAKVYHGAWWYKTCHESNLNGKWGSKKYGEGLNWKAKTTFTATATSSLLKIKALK : -0.277

The recorded glycan array binding signal (z-score) for DrGRIFIN (Danio rerio), Q6DGJ1 (protein) MTLRFEASCPDGLCPGWSVILKGETPPEASKFEINFLCDRDDRVAFHFNPRFTESDIICNSYMANRWGQEERCNHFPLGVEEPFQIEIYSDNDHFHVYIDKAKVMQYKHRVEDLKTITKLQVVNDVKISSLEITKKLFY is -0.052

glycan array binding signal (z-score) for MAA (Maackia amurensis), P0DKL3 (protein) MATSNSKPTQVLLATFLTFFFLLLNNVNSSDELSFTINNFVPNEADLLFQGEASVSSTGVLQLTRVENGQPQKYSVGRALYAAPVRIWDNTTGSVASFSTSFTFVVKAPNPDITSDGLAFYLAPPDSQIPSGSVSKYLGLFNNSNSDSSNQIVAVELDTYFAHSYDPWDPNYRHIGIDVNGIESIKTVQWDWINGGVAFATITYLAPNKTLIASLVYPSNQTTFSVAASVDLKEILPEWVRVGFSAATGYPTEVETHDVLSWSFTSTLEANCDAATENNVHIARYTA is 2.31

SUN4 (Saccharomyces cerevisiae), P53616 (protein) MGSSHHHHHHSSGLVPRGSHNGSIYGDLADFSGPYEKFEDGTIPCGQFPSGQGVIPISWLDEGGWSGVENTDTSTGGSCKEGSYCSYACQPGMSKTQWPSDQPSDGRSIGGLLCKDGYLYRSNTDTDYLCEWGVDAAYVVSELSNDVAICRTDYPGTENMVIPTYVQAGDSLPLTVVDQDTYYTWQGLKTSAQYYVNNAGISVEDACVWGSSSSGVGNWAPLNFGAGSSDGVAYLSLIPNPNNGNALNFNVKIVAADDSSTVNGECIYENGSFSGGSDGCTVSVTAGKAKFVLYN has a reported glycan array binding signal (z-score) of 1.87
